assay: Saturation solubility of sirolimus in selected solvents; format: physicochemical; settings: methanol, organic solvent or mixture, thermodynamic from solid, saturation solubility in Methanol (polar protic), room temperature, HPLC of supernatant
Measured property: solubility (mg/mL)
Supply the numeric figure in mg/mL, leaving out any unit text.

Entry "CO[C@H]1C[C@@H]2CC[C@@H](C)[C@@](O)(O2)C(=O)C(=O)N2CCCC[C@H]2C(=O)O[C@H]([C@H](C)C[C@@H]2CC[C@@H](O)[C@H](OC)C2)CC(=O)[C@H](C)/C=C(\C)[C@@H](O)[C@@H](OC)C(=O)[C@H](C)C[C@H](C)/C=C/C=C/C=C/1C" : reported solubility = ? 246

---

assay: Saturation solubility of sirolimus in selected solvents; assay type: physicochemical; settings: water, thermodynamic from solid, saturation solubility in Water (polar protic), room temperature, HPLC of supernatant
Measured property: solubility

Request the reported solubility associated with "CO[C@H]1C[C@@H]2CC[C@@H](C)[C@@](O)(O2)C(=O)C(=O)N2CCCC[C@H]2C(=O)O[C@H]([C@H](C)C[C@@H]2CC[C@@H](O)[C@H](OC)C2)CC(=O)[C@H](C)/C=C(\C)[C@@H](O)[C@@H](OC)C(=O)[C@H](C)C[C@H](C)/C=C/C=C/C=C/1C" ~1 µg/mL

---

assay: Saturation solubility of sirolimus in selected solvents; format: physicochemical; conditions: iso-propanol, organic solvent or mixture, thermodynamic from solid, saturation solubility in iso-Propanol (polar protic), room temperature, HPLC of supernatant
Measured property: solubility (mg/mL)
Could you give me the number in mg/mL? Just the number is fine.

# input compound: "CO[C@H]1C[C@@H]2CC[C@@H](C)[C@@](O)(O2)C(=O)C(=O)N2CCCC[C@H]2C(=O)O[C@H]([C@H](C)C[C@@H]2CC[C@@H](O)[C@H](OC)C2)CC(=O)[C@H](C)/C=C(\C)[C@@H](O)[C@@H](OC)C(=O)[C@H](C)C[C@H](C)/C=C/C=C/C=C/1C" ; wanted: its solubility 25

---

assay: Saturation solubility of sirolimus in selected solvents; type: physicochemical; conditions: acetone, organic solvent or mixture, thermodynamic from solid, saturation solubility in Acetone (polar aprotic), room temperature, HPLC of supernatant
Measured property: solubility

GET /values?readout=solubility&item= CO[C@H]1C[C@@H]2CC[C@@H](C)[C@@](O)(O2)C(=O)C(=O)N2CCCC[C@H]2C(=O)O[C@H]([C@H](C)C[C@@H]2CC[C@@H](O)[C@H](OC)C2)CC(=O)[C@H](C)/C=C(\C)[C@@H](O)[C@@H](OC)C(=O)[C@H](C)C[C@H](C)/C=C/C=C/C=C/1C [sirolimus] ≥ 200 mg/mL
